Values of IC50 reported for yeast α-glucosidase (Saccharomyces cerevisiae) appear below.
Write the value in µM as a bare number.

The following compounds have reported results that may help.
>>> print(df.to_string())
                                   compound  unit_info  recorded_value
0  O=C(Cn1cc(COc2ccc(N3C(=O)c4ccccc4C3=O)cc2)nn1)Nc1cccc(Cl)c1Cl [Compound 11g]         µM             239
1  CCc1ccc(NC(=O)Cn2cc(COc3ccc(N4C(=O)c5ccccc5C4=O)cc3)nn2)cc1 [Compound 11d]         µM             492

IN: What reported IC50 corresponds to O=C(Cn1cc(COc2ccc(N3C(=O)c4ccccc4C3=O)cc2)nn1)NCc1ccc(F)cc1 [Compound 11n] on yeast α-glucosidase (Saccharomyces cerevisiae)?
OUT: 686

IN: What reported IC50 corresponds to O=C(Cn1cc(COc2ccc(N3C(=O)c4ccccc4C3=O)cc2)nn1)Nc1c(Cl)cccc1Cl [Compound 11i] on yeast α-glucosidase (Saccharomyces cerevisiae)?
OUT: 46.2

IN: What reported IC50 corresponds to Cc1cccc(NC(=O)Cn2cc(COc3ccc(N4C(=O)c5ccccc5C4=O)cc3)nn2)c1C [Compound 11b] on yeast α-glucosidase (Saccharomyces cerevisiae)?
OUT: 366

IN: What reported IC50 corresponds to O=C(Cn1cc(COc2ccc(N3C(=O)c4ccccc4C3=O)cc2)nn1)Nc1cccc(Cl)c1 [Compound 11f] on yeast α-glucosidase (Saccharomyces cerevisiae)?
OUT: 112

* * *

Reported melting point is given for each of the following molecules.

IN: # melting point lookup, item Cc1cc([N+](=O)[O-])ccc1NC(=O)Cn1cc(COc2ccc(N3C(=O)c4ccccc4C3=O)cc2)nn1 [Compound 11l]
OUT: 228 to 230 °C

IN: # melting point lookup, item O=C(Cn1cc(COc2ccc(N3C(=O)c4ccccc4C3=O)cc2)nn1)Nc1cccc(F)c1 [Compound 11e]
OUT: 204 to 206 °C

IN: # melting point lookup, item O=C(Cn1cc(COc2ccc(N3C(=O)c4ccccc4C3=O)cc2)nn1)Nc1c(Cl)cccc1Cl [Compound 11i]
OUT: 202 to 204 °C

IN: # melting point lookup, item O=C(Cn1cc(COc2ccc(N3C(=O)c4ccccc4C3=O)cc2)nn1)NCc1ccc(F)cc1 [Compound 11n]
OUT: 204 to 206 °C

IN: # melting point lookup, item O=C(Cn1cc(COc2ccc(N3C(=O)c4ccccc4C3=O)cc2)nn1)Nc1ccc(Cl)cc1Cl [Compound 11h]
OUT: 232 to 234 °C

IN: # melting point lookup, item O=C(Cn1cc(COc2ccc(N3C(=O)c4ccccc4C3=O)cc2)nn1)Nc1cccc(Cl)c1Cl [Compound 11g]
OUT: 203 to 205 °C

IN: # melting point lookup, item CCc1ccc(NC(=O)Cn2cc(COc3ccc(N4C(=O)c5ccccc5C4=O)cc3)nn2)cc1 [Compound 11d]
OUT: 202 to 204 °C

IN: # melting point lookup, item Cc1cccc(NC(=O)Cn2cc(COc3ccc(N4C(=O)c5ccccc5C4=O)cc3)nn2)c1C [Compound 11b]
OUT: 206 to 208 °C

IN: # melting point lookup, item O=C(Cn1cc(COc2ccc(N3C(=O)c4ccccc4C3=O)cc2)nn1)Nc1ccc([N+](=O)[O-])cc1 [Compound 11k]
OUT: 260 to 262 °C

IN: # melting point lookup, item O=C(Cn1cc(COc2ccc(N3C(=O)c4ccccc4C3=O)cc2)nn1)Nc1ccc(Br)cc1 [Compound 11j]
OUT: 237 to 239 °C

IN: # melting point lookup, item O=C(Cn1cc(COc2ccc(N3C(=O)c4ccccc4C3=O)cc2)nn1)Nc1ccccc1 [Compound 11a]
OUT: 218 to 220 °C

* * *

# Target system: yeast α-glucosidase (Saccharomyces cerevisiae)
# Construct: purchased Sigma-Aldrich
# Sequence (P53341 whole entry): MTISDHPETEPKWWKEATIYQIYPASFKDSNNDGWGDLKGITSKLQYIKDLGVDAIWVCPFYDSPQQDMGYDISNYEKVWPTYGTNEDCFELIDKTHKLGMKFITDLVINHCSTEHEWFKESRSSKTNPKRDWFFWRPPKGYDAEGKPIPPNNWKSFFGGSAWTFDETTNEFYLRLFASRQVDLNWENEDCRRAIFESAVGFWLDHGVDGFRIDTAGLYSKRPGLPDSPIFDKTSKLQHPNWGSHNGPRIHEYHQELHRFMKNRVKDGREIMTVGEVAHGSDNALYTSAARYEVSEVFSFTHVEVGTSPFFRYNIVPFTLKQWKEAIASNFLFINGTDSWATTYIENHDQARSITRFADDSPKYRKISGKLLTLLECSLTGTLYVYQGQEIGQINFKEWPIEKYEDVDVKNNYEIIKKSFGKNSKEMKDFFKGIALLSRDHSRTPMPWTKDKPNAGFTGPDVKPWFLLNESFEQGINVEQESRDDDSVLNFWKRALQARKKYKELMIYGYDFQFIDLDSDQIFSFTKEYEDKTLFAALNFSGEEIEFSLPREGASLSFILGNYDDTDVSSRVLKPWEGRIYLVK
# Assay overview: biochemical
# Type: biochemical
# Test settings: SAR discussion of Table 1
Assay endpoint: α-glucosidase inhibitory activity in words

                                   compound  recorded_value
0  Cc1cccc(C)c1NC(=O)Cn1cc(COc2ccc(N3C(=O)c4ccccc4C3=O)cc2)nn1 [Compound 11c]        inactive
1  O=C(Cn1cc(COc2ccc(N3C(=O)c4ccccc4C3=O)cc2)nn1)NCc1ccccc1 [Compound 11m]        inactive

* * *

Values of pIC50 reported for yeast α-glucosidase (Saccharomyces cerevisiae) appear below.
FYI, pIC50 means -log10 of a concentration in mol per litre.

>>> df
                                   compound                             target_system  recorded_value
0  Cc1cc([N+](=O)[O-])ccc1NC(=O)Cn1cc(COc2ccc(N3C(=O)c4ccccc4C3=O)cc2)nn1 [Compound 11l]  yeast α-glucosidase (Saccharomyces cerevisiae)            3.56
1  O=C(Cn1cc(COc2ccc(N3C(=O)c4ccccc4C3=O)cc2)nn1)Nc1ccccc1 [Compound 11a]  yeast α-glucosidase (Saccharomyces cerevisiae)            3.69
2  O=C(Cn1cc(COc2ccc(N3C(=O)c4ccccc4C3=O)cc2)nn1)Nc1ccc(Br)cc1 [Compound 11j]  yeast α-glucosidase (Saccharomyces cerevisiae)            4.34

IN: What reported pIC50 corresponds to O=C(Cn1cc(COc2ccc(N3C(=O)c4ccccc4C3=O)cc2)nn1)Nc1cccc(F)c1 [Compound 11e] on yeast α-glucosidase (Saccharomyces cerevisiae)?
OUT: 3.73

IN: What reported pIC50 corresponds to O=C(Cn1cc(COc2ccc(N3C(=O)c4ccccc4C3=O)cc2)nn1)Nc1ccc(Cl)cc1Cl [Compound 11h] on yeast α-glucosidase (Saccharomyces cerevisiae)?
OUT: 3.55

* * *

Assay endpoint: melting point

The following compounds have reported results that may help.
                                   compound  recorded_value
0  O=C(Cn1cc(COc2ccc(N3C(=O)c4ccccc4C3=O)cc2)nn1)Nc1cccc(Cl)c1 [Compound 11f]   210 to 212 °C
1  Cc1cccc(C)c1NC(=O)Cn1cc(COc2ccc(N3C(=O)c4ccccc4C3=O)cc2)nn1 [Compound 11c]   209 to 211 °C

API: the following record is the query input.
IN: # melting point lookup, item O=C(Cn1cc(COc2ccc(N3C(=O)c4ccccc4C3=O)cc2)nn1)NCc1ccccc1 [Compound 11m]
OUT: 201 to 203 °C
